- test_target: T1, human Amyloid beta 1-42 peptide (Homo sapiens, UniProt P05067)
- T1 construct: biotinylated human Amyloid beta 1-42 peptide (rpeptide, USA; cat: A1117); purchased rPeptide, USA A1117; host or cells: synthetic peptide
- T1 sequence (P05067 672-713): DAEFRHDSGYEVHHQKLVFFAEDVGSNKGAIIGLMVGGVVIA
- assay_overview: Surface Plasmon Resonance kinetic profiling of purified scFv (ProteOn)
- Assay type: binding
- reported_conditions: biotinylated human Amyloid beta 1-42 on streptavidin chip
For each of the molecules below, state its kd.
Numbers only, in s⁻¹.

Some solved entries appear below for comparison.
molecule="Abet0379: optimized anti-Aβ1-42 clone derived from Abet0144-GL (protein, left off: small tags and cut ends, optimized anti-Aβ1-42 clone derived from Abet0144-GL) scFv (part 1 of 2): EVQLLESGGGLVQPGGSLRLSCAASGFDFAETPLWWVRQAPGERLEWVSVIGSNQNKTAYADSVKGRFTISRDNSKDTLYLQMNSLRAEDTAVYYCAREWMDHSRPYYYYGMDVWGQGTLVTVSS scFv (part 2 of 2): QSVLTQPPSVSVSPGQTASITCSGHNLEDKFASWYQQKSGQSPVLVIYRDDKRPSGIPERFSASNSGHTATLTISGTQATDGADYYCATQDNFTRVFGGGTKLTVL" measure_unit=s⁻¹ observed=4.39e-05
molecule="Abet0368: optimized anti-Aβ1-42 clone derived from Abet0144-GL (protein, left off: small tags and cut ends, optimized anti-Aβ1-42 clone derived from Abet0144-GL) scFv (part 1 of 2): EVQLLESGGGLVQPGGSLRLSCAASGFDFGPSPMWWVRQAPGKGLEWVSVIGKDTQNSTYADSVKGRFTISRDNSKDTLYLQMNSLKAEDTAVYYCAREWMDHSRPYYYYGMDVWGQGTLVTVSS scFv (part 2 of 2): SYELTQPPSVSVSPGQTASITCSGHNLEDKFTSWYQQKSGQSPVLVIYRDDKRPSGIPERFSASNSGHTATLTISGAQATDEADYYCSSQDTVTRVFGGGTKLTVL" measure_unit=s⁻¹ observed=9e-05
molecule="Abet0344: optimized anti-Aβ1-42 clone derived from Abet0144-GL (protein, left off: small tags and cut ends, optimized anti-Aβ1-42 clone derived from Abet0144-GL) scFv (part 1 of 2): EVQLLESGGGLVQPGGSLSLSCAASGFTFSVYTMWWVRQAPGKGLEWVSVIGGNETRKAYADSVKGRFTISRDNSKNRLYLQMNSLRAEDTAVYYCAREWMDHSRPYYYYGMDVWGQGTLVTVSS scFv (part 2 of 2): QSVLTQPPSVSVSPGQTASITCSGHNLEDKFASWYQQKSGQSPVLVIYRDDKRPSGIPERFSASNSGHTATLTISGTQATDEADYYCATQDNFTRVFGGGTKLTVL" measure_unit=s⁻¹ observed=5.73e-05
molecule="Abet0322b: optimized anti-Aβ1-42 clone derived from Abet0144-GL (protein, left off: small tags and cut ends, optimized anti-Aβ1-42 clone derived from Abet0144-GL) scFv (part 1 of 2): EVQLLESGGGLVQPGGSLRLSCAASNEEFQYNPMWWVRQAPGKGLEWVSVIGSSGGATVYADAVKGRFTISRDNSENTLYLQMNSLRAEDTAVYYCAREWMDHSRPYYYYGMDVWGQGTLVTVSS scFv (part 2 of 2): SYELTQPPSVSVSPGQTASITCSGHNLGDKFASWYQQKPGQSPVLVIYRDDKRPSEIPERFSASNSGHTATLTISGTQATDEADYYCSSQDTVTRVFGGGTKLTVL" measure_unit=s⁻¹ observed=0.000165
molecule="Abet0323b: optimized anti-Aβ1-42 clone derived from Abet0144-GL (protein, left off: small tags and cut ends, optimized anti-Aβ1-42 clone derived from Abet0144-GL) scFv (part 1 of 2): EVQLLESGGGLVQPGGSLRLSCAASTSTFQEDTMWWVRQAPGKGLEWVSVIGPNPKNNAYADSVKGRFTISRDNSKNTLYLQMNSLRAEDTAVYYCAREWMDHSRPYYYYGMDVWGQGTLVTVSS scFv (part 2 of 2): SYELTQPPSVSVSPGQTASITCSGHNLEDKFASWYQQKPGQSPVLVIYRDDKRPSGVPERFSASNSGHTATLTISGTQATDEADYYCSSQDTVTRVFGGGTKLIVL" measure_unit=s⁻¹ observed=0.000188
molecule="Abet0332: optimized anti-Aβ1-42 clone derived from Abet0144-GL (protein, left off: small tags and cut ends, optimized anti-Aβ1-42 clone derived from Abet0144-GL) scFv (part 1 of 2): EVQLLESGGGLVQPGESLRLSCAASSDSWHTDIMWWVRQAPGKRLEWVSVIGNSNKKIAYADSVKGRFTISRDNSKNTLYLQMNSLRAEDTAVYYCAREWMDHSRPYYYYGMDVWGQGTLVTVSS scFv (part 2 of 2): SYELTQPPSVSVSPGQTASITCSGHNIGAKWVSWYQQKPGQSPILVIYRDDKRPSGIPERFSASNSGHTATLTISGTQATDEADYYCQAQGQVTRSFGGGTKLTVL" measure_unit=s⁻¹ observed=0.000129
molecule="Abet0374: optimized anti-Aβ1-42 clone derived from Abet0144-GL (protein, left off: small tags and cut ends, optimized anti-Aβ1-42 clone derived from Abet0144-GL) scFv (part 1 of 2): EVQLLESGGGLVQPGGSLRLSCAASGFQFKDTPMWWVRQAPGKGLEWVSVIGDQNHKKAYADSVKGRFTISRDNSKNTLYLQMNSLRAEDTAVYYCAREWMDHSRPYYYYGMDAWGQGTLVTVSS scFv (part 2 of 2): SYELTQPPSVSVTPGQTASITCSGHNLGGKFASWYQQKPGQSPVLVIYRDDKRPSGIPERFSASNFGHTATLTISGTQATDEADYYCSSQDTVTRVFGGGTKLTVL" measure_unit=s⁻¹ observed=6.04e-05

Consider the additional molecule presented here.
Q: Need kd of Abet0377: optimized anti-Aβ1-42 clone from quaternary library (protein, left off: small tags and cut ends, optimized anti-Aβ1-42 clone from quaternary library) scFv (part 1 of 2): EVQLLESGGGLVQPGGSLRLSCAASGFNFNEQTLWWVRQAPGKGLEWVSVIGVGTKNIAYADTVKGRFTISRDNSKNTLYLQMNSLRAEDTAVYYCAREWMDHSRPYYYYGMDVWGQGTLVTVSS scFv (part 2 of 2): SYELTQPPSVSVSPGQTASITCSGHNTEHKWISWYQQKPGQSPVLVIYRDDKRPSGIPERFSATNSGHTATLTISGTQATDEADYYCSSQDTVTRVFGGGTKLTVL , thanks.
Ans: 3.02e-05
